target: T1, rat serum albumin (rat, UniProt P02770 25-608); experiment: peptide competition for albumin
T1 construct: also called Rat SA; RSA
T1 sequence (P02770 25-608 limits assumed): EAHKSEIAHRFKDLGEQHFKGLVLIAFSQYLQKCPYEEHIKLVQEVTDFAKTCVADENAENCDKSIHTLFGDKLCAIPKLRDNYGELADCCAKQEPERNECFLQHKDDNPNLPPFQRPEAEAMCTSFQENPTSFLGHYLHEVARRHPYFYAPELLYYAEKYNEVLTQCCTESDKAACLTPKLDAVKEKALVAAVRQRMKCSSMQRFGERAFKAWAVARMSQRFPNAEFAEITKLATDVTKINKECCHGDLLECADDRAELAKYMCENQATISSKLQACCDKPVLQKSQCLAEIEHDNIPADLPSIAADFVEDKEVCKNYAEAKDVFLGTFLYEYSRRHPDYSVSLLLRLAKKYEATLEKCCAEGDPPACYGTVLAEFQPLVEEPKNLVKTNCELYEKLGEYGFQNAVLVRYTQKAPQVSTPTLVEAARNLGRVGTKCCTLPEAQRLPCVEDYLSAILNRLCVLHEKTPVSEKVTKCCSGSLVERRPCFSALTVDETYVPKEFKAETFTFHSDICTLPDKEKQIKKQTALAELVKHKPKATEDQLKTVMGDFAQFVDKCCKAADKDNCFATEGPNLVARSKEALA
pIC50: −log10 of the molar value. No end group written: not given here.
Decide by pIC50: equal to or exceeding 7 means true (1), less means false (0).

The examples below pair each entry with its known result.
> print(dat)
                                     binder  classification
1  Ac-MEDICLPRWGCLWED-NH2 (not fully specified (bridges); cysteine pairing not given here, free peptide) [SA12]       false (0)
2  Ac-MEDICLPRWGCLWEDD-NH2 (not fully specified (bridges); cysteine pairing not given here, free peptide) [SA11]       false (0)
3  DICLPRWGCLW-NH2 (not fully specified (bridges); cysteine pairing not given here, free peptide) [SA04]       false (0)
4  QGLIGDICLPRWGCLWGDSV-NH2 (not fully specified (bridges); cysteine pairing not given here, free peptide) [SA07]        true (1)

Okay, now this binder:
Dear colleague, could you confirm whether Ac-EDICLPRWGCLWEDD-NH2 (not fully specified (bridges); cysteine pairing not given here, free peptide) [SA09] has pIC50 at or above 7?
false (0)
